molecular target: Acetylcholinesterase (AChE) (Homo sapiens, UniProt P22303); construct: human, recombinant (expressed in HEK 293 cells); test: Ellman spectrophotometric assay with acetylthiocholine, Dixon plot; details: read-out: IC50 (μmol/l) by spectrophotometry
Sequence (P22303 32-614): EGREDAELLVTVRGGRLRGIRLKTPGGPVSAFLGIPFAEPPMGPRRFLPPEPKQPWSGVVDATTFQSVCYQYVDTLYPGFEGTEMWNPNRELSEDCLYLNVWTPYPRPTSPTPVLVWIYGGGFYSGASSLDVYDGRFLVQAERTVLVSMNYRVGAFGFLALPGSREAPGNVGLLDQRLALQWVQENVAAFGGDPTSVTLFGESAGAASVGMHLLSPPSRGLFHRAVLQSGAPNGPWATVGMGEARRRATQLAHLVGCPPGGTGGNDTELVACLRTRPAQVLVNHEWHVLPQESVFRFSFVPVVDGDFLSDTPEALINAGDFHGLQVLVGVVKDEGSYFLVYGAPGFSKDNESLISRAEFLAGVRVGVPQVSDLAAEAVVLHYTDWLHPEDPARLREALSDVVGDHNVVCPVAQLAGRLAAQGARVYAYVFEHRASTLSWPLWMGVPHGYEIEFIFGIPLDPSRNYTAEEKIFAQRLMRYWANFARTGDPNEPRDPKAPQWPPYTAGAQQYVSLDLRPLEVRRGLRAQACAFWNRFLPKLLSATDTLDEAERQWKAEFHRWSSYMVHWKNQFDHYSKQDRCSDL
pIC50: −log10 of the molar value.

- compound: "COc1cc2c(cc1O)C[C@H]1c3c(cc(O)c(OC)c3-2)CCN1C [boldine]"
  pIC50: 3.43

---

target: Butyrylcholinesterase (BChE) (Homo sapiens, UniProt P06276); construct: from human serum; experiment: Ellman spectrophotometric assay with butyrylthiocholine, Dixon plot; details: read-out: IC50 (μmol/l) by spectrophotometry
Sequence (P06276 29-602): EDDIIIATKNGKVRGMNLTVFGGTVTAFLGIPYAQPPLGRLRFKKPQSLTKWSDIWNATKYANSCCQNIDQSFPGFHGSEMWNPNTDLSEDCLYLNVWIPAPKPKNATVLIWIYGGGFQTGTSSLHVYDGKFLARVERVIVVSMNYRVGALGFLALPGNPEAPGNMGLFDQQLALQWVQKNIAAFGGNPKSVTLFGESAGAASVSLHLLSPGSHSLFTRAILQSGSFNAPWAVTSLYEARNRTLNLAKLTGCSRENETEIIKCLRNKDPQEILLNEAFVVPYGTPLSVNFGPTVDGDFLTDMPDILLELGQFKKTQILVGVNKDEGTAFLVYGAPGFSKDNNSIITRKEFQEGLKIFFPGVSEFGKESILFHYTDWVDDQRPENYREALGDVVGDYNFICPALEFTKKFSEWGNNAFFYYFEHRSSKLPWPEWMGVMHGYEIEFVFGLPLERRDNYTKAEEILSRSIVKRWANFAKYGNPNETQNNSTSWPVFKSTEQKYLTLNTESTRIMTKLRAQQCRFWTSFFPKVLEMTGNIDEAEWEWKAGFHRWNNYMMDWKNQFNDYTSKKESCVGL

- smilesNotation: "COc1cc2c(cc1O)C[C@H]1c3c(cc(O)c(OC)c3-2)CCN1C"
  studySystem: "Butyrylcholinesterase (BChE) (Homo sapiens, UniProt P06276)"
  IC50 [µmol/L]: 322

Data provenance: paper PMC5907398
